Target desc: T1, LIN28Δ (human, UniProt Q9H9Z2 16-187)
T1 sequence: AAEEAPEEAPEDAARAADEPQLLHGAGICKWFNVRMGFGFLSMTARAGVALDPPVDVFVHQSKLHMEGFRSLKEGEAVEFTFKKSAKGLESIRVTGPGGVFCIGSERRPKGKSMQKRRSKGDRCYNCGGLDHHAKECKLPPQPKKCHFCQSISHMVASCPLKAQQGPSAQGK
Method summary: fluorescence polarization
Property measured: pKd
Give only the number. pKd is defined as minus log10 of concentration in molar units.

pKd for GGGGUAGUGAUUUUACCCUGUUUAGGAGAU (structured_RNA) [preE-let-7f-1-FAM] ? 7.54
